- assay-system: T1, monkey GPC3-His protein (monkey)
- T1 construct: Bought protein; also called monkey GPC3 protein
- protocol-notes: ELISA, monkey GPC3-His coated; antibody 6.94 nM
result-type: OD450 nm
I only need the number, thanks.

1. hAb006LH3L1c (antibody, human IgG1, V domains shown, Humanized F3.38.7, H3+L1c) VH: EVQLVQSGAEVKKPGSSVKVSCKASGYTFTDYEIHWVRQAPGQGLEWMGAIDPKTGNTAYNQKFMGRVTLTADKSTSTAYMELSSLRSEDTAVYYCTRYFSFAYWGQGTLVTVSS VL: DIVMTQTPLSLPVTPGEPASISCRSSQTFVHSNRNTYLQWYLQKPGQSPQLLIYKVSNRFSGVPDRFSGSGSGTDFTLKISRVEAEDVGVYYCFQGSHVPYTFGQGTKLEIK    1.33
2. hAb007LH1L1c (antibody, human IgG1, V domains shown, Humanized F3.81.19, H1+L1c) VH: EVQLVQSGAEVKKPGSSVKVSCKASGYTFSDYEMHWVRQAPGQGLEWMGTIDPETGNTAYNQKFKGRVTITADKSTSTAYMELSSLRSEDTAVYYCTRPYSLTYWGQGTLVTVSS VL: DIVMTQTPLSLPVTPGEPASISCRSSQSFVHSNADTYLQWYLQKPGQSPQLLIYKVSNRFSGVPDRFSGSGSGTDFTLKISRVEAEDVGVYYCFQGSHVPYTFGQGTKLEIK    1.26

In the following, a different binder is considered.
IN: I have this binder here, hAb006LH3L1e (antibody, human IgG1, V domains shown, Humanized F3.38.7, H3+L1e) VH: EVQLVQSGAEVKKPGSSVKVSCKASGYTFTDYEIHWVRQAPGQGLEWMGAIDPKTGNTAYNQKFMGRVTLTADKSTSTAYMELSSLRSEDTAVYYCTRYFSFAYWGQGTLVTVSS VL: DIVMTQTPLSLPVTPGEPASISCRSSQTFVHSNVNTYLQWYLQKPGQSPQLLIYKVSNRFSGVPDRFSGSGSGTDFTLKISRVEAEDVGVYYCFQGSHVPYTFGQGTKLEIK , and I need its recorded OD450 nm.
OUT: 1.22
